# System: BEN
# TEST METHOD NOTES: relative viability (nuclei count vs DMSO), 5 days (fraction); higher = more cells survive
# CONDITION DESCRIPTION: first compound 0.4 µM
Kindly supply the reported relative viability values for the records listed here.

# example entries with known answers
COMPOUND	MEASUREMENT
COc1cc(N2CCC(C(N)=O)CC2)ccc1Nc1nc(N)c(Cl)c(Nc2ccccc2S(=O)(=O)C(C)C)n1 [HG-5-88-01] + O=C(c1cc(Cc2n[nH]c(=O)c3ccccc23)ccc1F)N1CCN(C(=O)C2CC2)CC1 [Olaparib] (partner 8 µM)	1.13
Clc1ccc(Nc2nnc(Cc3ccncc3)c3ccccc23)cc1 [Vatalanib] + Cc1nc(NC(=O)N2CCC[C@H]2C(N)=O)sc1-c1ccnc(C(C)(C)C(F)(F)F)c1 [Alpelisib] (partner 2 µM)	1.09
COc1cc(N2CCC(C(N)=O)CC2)ccc1Nc1nc(N)c(Cl)c(Nc2ccccc2S(=O)(=O)C(C)C)n1 [HG-5-88-01] + CC(=O)c1c(C)c2cnc(Nc3ccc(N4CCNCC4)cn3)nc2n(C2CCCC2)c1=O [Palbociclib] (partner 0.5 µM)	0.409

API: the following record is the query input.
// sample COc1cc(N2CCC(C(N)=O)CC2)ccc1Nc1nc(N)c(Cl)c(Nc2ccccc2S(=O)(=O)C(C)C)n1 [HG-5-88-01] + O=C(CCCCCCC(=O)Nc1ccccc1)NO [Vorinostat] (partner 1 µM) , its relative viability was 0.591

###

# System: NCI-H1650
# TEST METHOD NOTES: relative viability (nuclei count vs DMSO), 5 days (fraction); higher = more cells survive
# CONDITION DESCRIPTION: first compound 0.4 µM
I'd appreciate it if you could supply relative viability values for the items below.

Examples with answers:
COMPOUND	MEASUREMENT
Clc1ccc(Nc2nnc(Cc3ccncc3)c3ccccc23)cc1 [Vatalanib] + CC1(C)CCC(c2ccc(Cl)cc2)=C(CN2CCN(c3ccc(C(=O)NS(=O)(=O)c4ccc(N[C@H](CCN5CCOCC5)CSc5ccccc5)c(S(=O)(=O)C(F)(F)F)c4)cc3)CC2)C1 [Navitoclax] (partner 0.5 µM)	1.41
C[C@@H]1CN(CC(=O)Nc2ccc3c(c2)Cc2cccc(-c4cc(=O)cc(N5CCOCC5)o4)c2S3)C[C@H](C)O1 + CC(=O)c1c(C)c2cnc(Nc3ccc(N4CCNCC4)cn3)nc2n(C2CCCC2)c1=O [Palbociclib] (partner 0.5 µM)	0.285
COc1cc(N2CCC(C(N)=O)CC2)ccc1Nc1nc(N)c(Cl)c(Nc2ccccc2S(=O)(=O)C(C)C)n1 [HG-5-88-01] + CC1(C)CCC(c2ccc(Cl)cc2)=C(CN2CCN(c3ccc(C(=O)NS(=O)(=O)c4ccc(N[C@H](CCN5CCOCC5)CSc5ccccc5)c(S(=O)(=O)C(F)(F)F)c4)cc3)CC2)C1 [Navitoclax] (partner 0.5 µM)	1.26

Value of measured relative viability for the entry C[C@@H]1CN(CC(=O)Nc2ccc3c(c2)Cc2cccc(-c4cc(=O)cc(N5CCOCC5)o4)c2S3)C[C@H](C)O1 + CS(=O)(=O)N1CCN(Cc2cc3nc(-c4cccc5[nH]ncc45)nc(N4CCOCC4)c3s2)CC1 [Pictilisib] (partner 1 µM) : 0.651

###

# System: NCI-H2085
# TEST METHOD NOTES: relative viability (nuclei count vs DMSO), 5 days (fraction); higher = more cells survive
# CONDITION DESCRIPTION: first compound 1.265 µM
EXPERIMENTAL ENDPOINT: relative viability
Give bare numbers.

Record excerpt, results attached:
MOLECULE	relative viability
COc1cc(N2CCC(C(N)=O)CC2)ccc1Nc1nc(N)c(Cl)c(Nc2ccccc2S(=O)(=O)C(C)C)n1 [HG-5-88-01] + Nc1nc2[nH]cc(CCc3ccc(C(=O)N[C@@H](CCC(=O)O)C(=O)O)cc3)c2c(=O)[nH]1 [Pemetrexed] (partner 0.2 µM)	0.861
COc1cc(N2CCC(C(N)=O)CC2)ccc1Nc1nc(N)c(Cl)c(Nc2ccccc2S(=O)(=O)C(C)C)n1 [HG-5-88-01] + NC(=O)Nc1cc(-c2cccc(F)c2)sc1C(=O)N[C@H]1CCCNC1 [AZD7762] (partner 0.2 µM)	0.964
COc1cc(N2CCC(C(N)=O)CC2)ccc1Nc1nc(N)c(Cl)c(Nc2ccccc2S(=O)(=O)C(C)C)n1 [HG-5-88-01] + CC(=O)Nc1cccc(-n2c(=O)n(C3CC3)c(=O)c3c(Nc4ccc(I)cc4F)n(C)c(=O)c(C)c32)c1 [Trametinib] (partner 0.02 µM)	0.478

Next item in the queue.
Recorded relative viability (molecule Clc1ccc(Nc2nnc(Cc3ccncc3)c3ccccc23)cc1 [Vatalanib] + CCNC(=O)c1noc(-c2cc(C(C)C)c(O)cc2O)c1-c1ccc(CN2CCOCC2)cc1 [Luminespib] (partner 0.01 µM) ): 0.609

###

# Tested on: PC-14
# TEST METHOD NOTES: relative viability (nuclei count vs DMSO), 5 days (fraction); higher = more cells survive
# CONDITION DESCRIPTION: first compound 0.08 µM
EXPERIMENTAL ENDPOINT: relative viability
Numbers only.

// worked examples, relative viability included
COMPOUND	SYSTEM NAME	relative viability
CCCCCCCCCCCC1=C(O)C(=O)C=C(O)C1=O [Embelin] + Cc1cc(Nc2cc(N3CCN(C)CC3)nc(Sc3ccc(NC(=O)C4CC4)cc3)n2)n[nH]1 [Tozasertib] (partner 0.1 µM)	PC-14	0.612
CCCCCCCCCCCC1=C(O)C(=O)C=C(O)C1=O [Embelin] + COc1cc2c(Oc3ccc(NC(=O)C4(C(=O)Nc5ccc(F)cc5)CC4)cc3F)ccnc2cc1OCCCN1CCOCC1 [Foretinib] (partner 0.25 µM)	PC-14	1.05
CCCCCCCCCCCC1=C(O)C(=O)C=C(O)C1=O [Embelin] + Cc1nc(Nc2ncc(C(=O)Nc3c(C)cccc3Cl)s2)cc(N2CCN(CCO)CC2)n1 [Dasatinib] (partner 0.075 µM)	PC-14	0.257
CCCCCCCCCCCC1=C(O)C(=O)C=C(O)C1=O [Embelin] + CCNC(=O)c1noc(-c2cc(C(C)C)c(O)cc2O)c1-c1ccc(CN2CCOCC2)cc1 [Luminespib] (partner 0.01 µM)	PC-14	0.203
CCCCCCCCCCCC1=C(O)C(=O)C=C(O)C1=O [Embelin] + NC(=O)Nc1cc(-c2cccc(F)c2)sc1C(=O)N[C@H]1CCCNC1 [AZD7762] (partner 0.2 µM)	PC-14	0.339
CCCCCCCCCCCC1=C(O)C(=O)C=C(O)C1=O [Embelin] + COc1cccc2cc(-c3nc([C@H]4CC[C@H](C(=O)O)CC4)n4ncnc(N)c34)[nH]c12 [OSI-027] (partner 0.5 µM)	PC-14	0.81

Sample CCCCCCCCCCCC1=C(O)C(=O)C=C(O)C1=O [Embelin] + C[C@@H](Oc1cc(-c2cnn(C3CCNCC3)c2)cnc1N)c1c(Cl)ccc(F)c1Cl [Crizotinib] (partner 1 µM) , system: PC-14. Its relative viability is 0.916

###

# Tested on: NCI-H2126
# TEST METHOD NOTES: relative viability (nuclei count vs DMSO), 5 days (fraction); higher = more cells survive
# CONDITION DESCRIPTION: first compound 1.265 µM
EXPERIMENTAL ENDPOINT: relative viability
Give bare numbers.

For each of the molecules below, note its relative viability.
1. Clc1ccc(Nc2nnc(Cc3ccncc3)c3ccccc23)cc1 [Vatalanib] + COc1cc2c(Oc3ccc(NC(=O)C4(C(=O)Nc5ccc(F)cc5)CC4)cc3F)ccnc2cc1OCCCN1CCOCC1 [Foretinib] (partner 0.25 µM)
2. COc1cc(N2CCC(C(N)=O)CC2)ccc1Nc1nc(N)c(Cl)c(Nc2ccccc2S(=O)(=O)C(C)C)n1 [HG-5-88-01] + Cc1nc(Nc2ncc(C(=O)Nc3c(C)cccc3Cl)s2)cc(N2CCN(CCO)CC2)n1 [Dasatinib] (partner 0.075 µM)
3. COc1cc(N2CCC(C(N)=O)CC2)ccc1Nc1nc(N)c(Cl)c(Nc2ccccc2S(=O)(=O)C(C)C)n1 [HG-5-88-01] + COc1cc2c(Oc3ccc(NC(=O)C4(C(=O)Nc5ccc(F)cc5)CC4)cc3F)ccnc2cc1OCCCN1CCOCC1 [Foretinib] (partner 0.25 µM)
4. COc1cc(N2CCC(C(N)=O)CC2)ccc1Nc1nc(N)c(Cl)c(Nc2ccccc2S(=O)(=O)C(C)C)n1 [HG-5-88-01] + O=C(c1cc(Cc2n[nH]c(=O)c3ccccc23)ccc1F)N1CCN(C(=O)C2CC2)CC1 [Olaparib] (partner 8 µM)

1.1
0.34
0.937
0.822

###

# Test system: HARA
# TEST METHOD NOTES: relative viability (nuclei count vs DMSO), 5 days (fraction); higher = more cells survive
# CONDITION DESCRIPTION: first compound 0.04 µM
Binary call on relative viability with cut-off 1: strictly below means YES, and equality or higher means NO.

Worked examples, 3 compounds total:
COMPOUND	GROUP
COc1cc(N2CCC(C(N)=O)CC2)ccc1Nc1nc(N)c(Cl)c(Nc2ccccc2S(=O)(=O)C(C)C)n1 [HG-5-88-01] + N=C(N)NC(=N)NCCc1ccccc1 [Phenformin] (partner 250 µM)	YES
C[C@@H]1CN(CC(=O)Nc2ccc3c(c2)Cc2cccc(-c4cc(=O)cc(N5CCOCC5)o4)c2S3)C[C@H](C)O1 + CC1(C)CCC(c2ccc(Cl)cc2)=C(CN2CCN(c3ccc(C(=O)NS(=O)(=O)c4ccc(N[C@H](CCN5CCOCC5)CSc5ccccc5)c(S(=O)(=O)C(F)(F)F)c4)cc3)CC2)C1 [Navitoclax] (partner 0.5 µM)	NO
COc1cc(N2CCC(C(N)=O)CC2)ccc1Nc1nc(N)c(Cl)c(Nc2ccccc2S(=O)(=O)C(C)C)n1 [HG-5-88-01] + C[C@@H](Oc1cc(-c2cnn(C3CCNCC3)c2)cnc1N)c1c(Cl)ccc(F)c1Cl [Crizotinib] (partner 1 µM)	NO

Here's an entry: COc1cc(N2CCC(C(N)=O)CC2)ccc1Nc1nc(N)c(Cl)c(Nc2ccccc2S(=O)(=O)C(C)C)n1 [HG-5-88-01] + CC1(C)CCC(c2ccc(Cl)cc2)=C(CN2CCN(c3ccc(C(=O)NS(=O)(=O)c4ccc(N[C@H](CCN5CCOCC5)CSc5ccccc5)c(S(=O)(=O)C(F)(F)F)c4)cc3)CC2)C1 [Navitoclax] (partner 0.5 µM) . Is its relative viability below 1?
NO

Find out if reported relative viability for Clc1ccc(Nc2nnc(Cc3ccncc3)c3ccccc23)cc1 [Vatalanib] + CS(=O)(=O)CCNCc1ccc(-c2ccc3ncnc(Nc4ccc(OCc5cccc(F)c5)c(Cl)c4)c3c2)o1 [Lapatinib] (partner 2 µM) is less than 1
YES

Record C[C@@H]1CN(CC(=O)Nc2ccc3c(c2)Cc2cccc(-c4cc(=O)cc(N5CCOCC5)o4)c2S3)C[C@H](C)O1 + O=C(CCCCCCC(=O)Nc1ccccc1)NO [Vorinostat] (partner 1 µM) : is its relative viability strictly below 1?
YES

Please check: relative viability for Clc1ccc(Nc2nnc(Cc3ccncc3)c3ccccc23)cc1 [Vatalanib] + Nc1ncn([C@H]2C[C@H](O)[C@@H](CO)O2)c(=O)n1 [Decitabine] (partner 2 µM) , strictly under 1 or not?
YES
